System: non-tumorigenic lung fibroblast cells (MRC-5)
Assay: Cell proliferation assay (CellTiter-Glo), MRC-5
Assay type: cell-based, human
Settings: Homo sapiens, MRC5, 72 h incubation, read-out: Half maximal inhibitory concentration (IC50), MRC-5 Cell Line
reportedMetric: IC50

Sample records with IC50:
C[C@@H]1O[C@@H](O[C@H]2[C@H](Oc3cc(O)c4c(c3)O[C@H](c3ccc(O)cc3)CC4=O)O[C@H](CO)[C@@H](O)[C@@H]2O)[C@H](O)[C@H](O)[C@H]1O; > 250 µM
O=c1c(O)c(-c2ccc(O)c(O)c2)oc2cc(O)cc(O)c12; 99.5 µM
O=C(O)c1ccc(O)cc1 [p-Hydroxybenzoic acid]; > 250 µM
COc1cc(C(=O)O)ccc1O; > 250 µM
O=C(O)[C@]1(O)C[C@@H](O)[C@@H](O)[C@H](O)C1; > 250 µM
COc1cc(C(=O)O)cc(OC)c1O; > 250 µM
O=c1oc2c(O)c(O)cc3c(=O)oc4c(O)c(O)cc1c4c23; > 250 µM
O=C(O[C@@H]1Cc2c(O)cc(O)cc2O[C@@H]1c1ccc(O)c(O)c1)c1cc(O)c(O)c(O)c1 [Epicatechin gallate]; 64.4 µM

Any idea what IC50 was measured for `C[C@@H]1O[C@@H](OC[C@H]2O[C@@H](Oc3c(-c4ccc(O)c(O)c4)oc4cc(O)cc(O)c4c3=O)[C@H](O)[C@@H](O)[C@@H]2O)[C@H](O)[C@H](O)[C@H]1O` ?
> 250 µM

---

Overview of reported Slope (in Trolox Equivalents) across a group of compounds:
Test: Total antioxidant capacity (TAC) colorimetric assay
Conditions: linear regression of dose-response, 7 concentrations; Cu2+ reagent, 1.5 h, absorbance 570 nm

Any idea what Slope (in Trolox Equivalents) was measured for Cc1c(C)c2c(c(C)c1O)CCC(C)(C(=O)O)O2 (centres unmarked) [Trolox, reference compound] ?
0.001014 ± 1.125 × 10^−5

Any idea what Slope (in Trolox Equivalents) was measured for O=C(O)c1ccc(O)cc1 [p-Hydroxybenzoic acid] ?
−0.000008 ± 1.260 × 10^−5

Any idea what Slope (in Trolox Equivalents) was measured for `C[C@@H]1O[C@@H](OC[C@H]2O[C@@H](Oc3c(-c4ccc(O)c(O)c4)oc4cc(O)cc(O)c4c3=O)[C@H](O)[C@@H](O)[C@@H]2O)[C@H](O)[C@H](O)[C@H]1O` ?
0.002962 ± 1.551 × 10^−4

---

Experiment: Total antioxidant capacity (TAC) colorimetric assay
Settings: linear regression of dose-response, 7 concentrations; Cu2+ reagent, 1.5 h, absorbance 570 nm
reportedMetric: Slope (in Trolox Equivalents)

Sample records with Slope (in Trolox Equivalents):
O=c1c(O)c(-c2ccc(O)c(O)c2)oc2cc(O)cc(O)c12 [Quercetin]; 0.004045 ± 1.392 × 10^−4
O=C(OC[C@H]1O[C@@H](OC(=O)c2cc(O)c(O)c(O)c2)[C@H](OC(=O)c2cc(O)c(O)c(O)c2)[C@@H](OC(=O)c2cc(O)c(O)c(O)c2)[C@@H]1OC(=O)c1cc(O)c(O)c(O)c1)c1cc(O)c(O)c(O)c1 [Penta-O-galloyl-β-D-glucose]; 0.01167 ± 5.756 × 10^−4
C[C@@H]1O[C@@H](O[C@H]2[C@H](Oc3cc(O)c4c(c3)O[C@H](c3ccc(O)cc3)CC4=O)O[C@H](CO)[C@@H](O)[C@@H]2O)[C@H](O)[C@H](O)[C@H]1O [Naringin]; 0.0005177 ± 9.755 × 10^−6
COc1cc(/C=C/C(=O)O)ccc1O [Ferulic acid]; 0.001775 ± 5.026 × 10^−5
O=c1c(O[C@@H]2O[C@H](CO)[C@@H](O)[C@H](O)[C@H]2O)c(-c2ccc(O)c(O)c2)oc2cc(O)cc(O)c12 [Quercetin 3-β-D-glucoside]; 0.002908 ± 1.522 × 10^−4

Any idea what Slope (in Trolox Equivalents) was measured for O=C(O)C=Cc1ccc(O)cc1 [p-Coumaric acid] ?
0.0003139 ± 1.434 × 10^−5

Any idea what Slope (in Trolox Equivalents) was measured for Oc1cc(O)c2c(c1)O[C@H](c1ccc(O)c(O)c1)[C@H](O)C2 [(−)-Epicatechin] ?
0.003729 ± 7.546 × 10^−5

Any idea what Slope (in Trolox Equivalents) was measured for COc1cc(C(=O)O)cc(OC)c1O [Syringic acid] ?
0.001088 ± 1.057 × 10^−5

Any idea what Slope (in Trolox Equivalents) was measured for O=C(O)[C@]1(O)C[C@@H](O)[C@@H](O)[C@H](O)C1 [Quinic acid] ?
−0.0000004 ± 1.034 × 10^−6
